Target: T1, human CD39 (Accession No. NM_001776.6) expressed on cells (human, UniProt P49961 1-510)
T1 construct: whole, on cells; On Jurkat, 293T or SK-MEL28 cells; also called Jurkat/CD39; 293T/CD39
T1 sequence (looked up): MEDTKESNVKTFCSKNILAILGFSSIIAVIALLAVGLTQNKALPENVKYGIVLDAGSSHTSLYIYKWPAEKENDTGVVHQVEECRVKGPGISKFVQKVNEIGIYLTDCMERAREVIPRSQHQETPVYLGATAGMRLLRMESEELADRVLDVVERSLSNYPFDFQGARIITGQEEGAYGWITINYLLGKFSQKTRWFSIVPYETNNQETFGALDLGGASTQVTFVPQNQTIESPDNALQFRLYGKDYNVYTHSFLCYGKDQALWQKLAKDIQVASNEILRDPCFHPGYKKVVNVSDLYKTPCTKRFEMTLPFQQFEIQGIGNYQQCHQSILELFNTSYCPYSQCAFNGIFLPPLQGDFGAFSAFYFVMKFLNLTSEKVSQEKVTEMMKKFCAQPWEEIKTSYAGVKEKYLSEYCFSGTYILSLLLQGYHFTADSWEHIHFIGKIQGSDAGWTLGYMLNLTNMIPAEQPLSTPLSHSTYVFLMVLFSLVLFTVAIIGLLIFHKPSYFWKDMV
Experiment: flow cytometry, Jurkat/CD39 cells, KD from MFI
Measurement Label: Kd (nM)
Hi! Could you send only the number? It should be in nM, unit omitted.

Binder	Observed Measurement
mAnE67_sc (antibody, scFv-Fc homodimer, anti-CD39 (mouse variable regions); also called scFv-Fc homodimeric antibody of anti-CD39_scFv antibody mAnE67; not shown: linker and Fc-LALA (human IgG1 Fc with L234A and L235A)) scFv: EVQLVESGGGLVKPGGSRKLSCAASGFTFSDYGMHWVRQAPEKGLEWVAYISSGSSIIYYADTVKGRFTISRDNAKNTLFLQMTGLRSEDTAMYYCARKDYPYAMDYWGQGTSLAVSSGGGGSGGGGSGGGGSGGGGSSIVMTQTPKFMSTSVGDRVSVTCKASQNVGTNVAWYQQKPGQSPKALIYWASNRFTGVPDRFTGSGSGTDFTLTISNVQSEDLADYFCQQYSSSPYTFGSGTKLEIK	0.334
Tre_291_sc (antibody, scFv-Fc homodimer, anti-CD39 (mouse variable regions); not shown: linker and Fc-LALA (human IgG1 Fc with L234A and L235A)) scFv: QVQLKQSGPGLVQPSQSLSITCTVSGFSLTSYGVHWVRQSPGKGLEWLGVIWRRGSTDYNAAFMSRLSITKDTSKSQVFFKMNSLQTDDTAIYYCAGVRGDAMDYWGQGTSVTVSSGGGGSGGGGSGGGGSGGGGSDIVMTQSHKSMSTSVGDRVSVTCKASQNVGTNVAWYQQKPGQSPKALIYSASYRYSGVPDRFTGSGSGTDFTLTISNVQSEDLAEYFCQQYNSYPLTFGGGTKLEIK	0.8
6-3hIG_sc (antibody, scFv-Fc homodimer, anti-CD39; also called scFv-Fc homodimeric antibody of anti-CD39_scFv antibody (humanized) 6-3hIG; not shown: GGGG linker and Fc-LALA (human IgG1 Fc with L234A and L235A)) scFv: QVQLVQSGAELVKPGASVKLSCKASGFSIKDTYVHWVKQAPGKGLEWIGKIDPANVNTKFDPKFQGRVTITADTSTNTAYLQLSSLRSEDTAVYYCALYGYDDDAYYFDYWGQGTLVTVSSGGGGSGGGGSGGGGSGGGGSEIVLTQSPASLSVSPGERATISCRASESVDNYGISFMNWFQQKPGQAPKLLIYAASNQGSGVPARFSGSGSGTDFTLTISSLEPEDFAVYYCQQSKEVPYTFGQGTKLEIK	42.1

We now examine a further binder.
Using the record for T86_sc (antibody, scFv-Fc homodimer, anti-CD39 (mouse variable regions); also called scFv-Fc homodimeric antibody of anti-CD39_scFv antibody T86; not shown: linker and Fc-LALA (human IgG1 Fc with L234A and L235A)) scFv: QIQLVQSGPELKKPGETVKISCEASGYTFINYGMNWVKQAPGKGLKWMGWINTYTGEPTYADDFKGRFAFSLETSANTAYLQINNLKNEDTATYFCARKGYYGYPNYYAMDYWGQGTSVTVSSGGGGSGGGGSGGGGSGGGGSDIVMTQSQKFMSTSVGDRVSITCKASQNVGTAVAWYQQKPGQSPKLLIYSASNRYTGVPDRFTGSGSGTDFTLTISNMQSEDLADYFCQQYSSYPITFGTGTKLEIK , report its Kd.
2.18
